assayMetric: melting point

# count of solved cases: 3
- compound: "Clc1nc(C2CC2)nc2sc3c(c12)CCCC3"
  assayMetric: "melting point"
  result: "112 to 114 °C"
- compound: "Cc1csc(C(O)(CC(=O)O)C(F)(F)F)n1 (centres undefined)"
  assayMetric: "melting point"
  result: "109 to 111 °C"
- compound: "Nc1ccc(CN2C(=O)CNC2=O)cc1"
  assayMetric: "melting point"
  result: "168 to 170 °C"

Task item: Specify measured melting point for `O=C(O)Cc1ccc(NS(=O)(=O)c2cccc(C(F)(F)F)c2)cc1` .
Reply: 122 to 124 °C

Task item: Note down melting point recorded for O=C(O)C1CSc2ccccc2O1 (centres undefined)
Reply: 126 to 128 °C

Task item: Recall and state the measured melting point for `Nc1ccc(Cl)cc1-c1nc2ccccc2[nH]1` .
Reply: 236 to 238 °C

Task item: Fill in melting point for record `Oc1ccc2cn[nH]c2c1`
Reply: 189 to 191 °C

Task item: Consider the compound `NC(=O)c1ccc(-n2cccc2)cc1` . State its measured melting point.
Reply: 237 to 239 °C

Task item: Look up melting point of `CCOc1cccc2[nH]c(C(=O)O)cc12` and report it.
Reply: 255 to 257 °C

Task item: Input `O=C1Nc2cc3c(cc2C1=O)OCCO3` , output reported melting point.
Reply: 210 to 212 °C

Task item: For the compound `Nc1ccc(-n2ccnc2)cc1C(F)(F)F` , report melting point.
Reply: 109 to 111 °C

Task item: Kindly indicate its recorded melting point. Item: `COC(=O)c1sc(C)cc1O`
Reply: 51 to 53 °C

Task item: Answer with the recorded melting point of `N#Cc1cccc(C(=O)NNC(=O)CCl)c1` only.
Reply: 199 to 201 °C

Task item: Note melting point for the compound shown: `Cc1nc(-c2cccc(N)c2)[nH]c1C`
Reply: 235 to 237 °C

Task item: Provide melting point value for the following compound: `COCCOc1ccc(C(=O)O)cc1`
Reply: 151 to 153 °C

###

assayMetric: melting point

See these solved cases before continuing.
- compound: "CN1C(=O)CCC(C(=O)O)C1c1cccc(Cl)c1 (configuration not stated)"
  result: "182 to 184 °C"
- compound: "Cc1ccc(SC2CCCC2)c(C(=O)O)c1"
  result: "130 to 132 °C"
- compound: "O=C(O)C1CCCN1C(=O)C12CC3CC(CC(C3)C1)C2 (configuration not stated)"
  result: "193 to 195 °C"
- compound: "O=C(O)C(=O)Cc1ccc2ccccc2c1"
  result: "188 to 190 °C"
- compound: "CCOC(=O)c1nnc2ccccc2c1N"
  result: "239 to 241 °C"

Task item: Give the value of melting point reported for the following: `O=C(CCl)Nc1c(F)cc(F)cc1Br`
Reply: 132 to 134 °C

Task item: Please look at this compound and report its melting point: `Clc1cc(Cl)cc(-c2nnc(Br)s2)c1`
Reply: 154 to 156 °C

Task item: Please list melting point recorded for the compound Cc1ccc(C(=O)O)cc1N1C(=O)C2CC=CCC2C1=O (configuration not stated)
Reply: 221 to 223 °C

Task item: // fetch melting point given entry `NC(=O)Cc1csc(-c2ccco2)n1`
Reply: 125 to 127 °C

Task item: Please supply the value of reported melting point for the item `Nc1nnc2n1CCCC2`
Reply: 270 to 272 °C

Task item: Tell me measured melting point for `NC(=O)c1ccc(F)c(N)c1` please.
Reply: 137 to 139 °C

Task item: Give recorded melting point. `COc1nc2cc(N)ccc2o1`
Reply: 123 to 125 °C

###

assayMetric: melting point

// solved cases for melting point follow
- compound: "Cc1cc(Cl)cc2nc(S)oc12"
  melting point: "253 to 255 °C"
- compound: "O=C1CCCC1Cc1ccccc1[N+](=O)[O-] (stereo unspecified)"
  melting point: "38 to 40 °C"
- compound: "CNc1ccc(C(=O)N2CCOCC2)cc1C"
  melting point: "107 to 109 °C"
- compound: "NNc1ccc([N+](=O)[O-])cc1S(=O)(=O)Nc1ccccc1Cl"
  melting point: "220 to 229 °C"
- compound: "Cc1cc(C)cc(N2CCC(C(=O)O)C2=O)c1 (stereo unspecified)"
  melting point: "115 to 117 °C"

Task item: In one line, give reported melting point of the entry `COc1ccc(S(=O)(=O)N2CCOCC2)cc1NC(=O)CCl` .
Reply: 180 to 182 °C

Task item: In one line, give reported melting point of the entry `Cc1ccc2ncc(C=O)n2c1` .
Reply: 105 to 107 °C

Task item: Give the reported value of melting point for this record: `COc1cc(C=O)ccc1OCc1cccs1`
Reply: 79 to 81 °C

Task item: Provide melting point value for the following compound: CC(C)c1ccc(N2CCC(C(=O)O)C2=O)cc1 (stereo unspecified)
Reply: 129 to 131 °C

Task item: Please supply the value of reported melting point for the item `COc1ccc(-c2ccc(C#N)cc2)cc1`
Reply: 102 to 104 °C

Task item: Provide measured melting point value, entry: CCOC(=O)c1n[nH]c(C(O)c2ccccc2)n1 (stereo unspecified)
Reply: 49 to 51 °C

Task item: Provide one value: measured melting point of `Cc1cc(-n2c(C)cc(C(=O)CCl)c2C)no1`
Reply: 110 to 112 °C

Task item: Let me know recorded melting point for CC(C)C(Cl)C(=O)O (stereo unspecified) , thanks.
Reply: 33 to 35 °C

Task item: Answer with the recorded melting point of `NNS(=O)(=O)CCc1ccccc1` only.
Reply: 62 to 64 °C

Task item: Using known records, supply melting point for `NC(=S)c1cc([N+](=O)[O-])ccc1N`
Reply: 171 to 173 °C

Task item: Provide one value: measured melting point of `CC(=O)Nc1ccc(N)c(Cl)c1`
Reply: 113 to 115 °C

Task item: Supply measured melting point of `CC(=O)c1cnc2nncn2c1C` in your reply.
Reply: 192 to 193 °C

Task item: Output melting point of `CNc1nc(C)cc(C)c1C#N`
Reply: 147 to 149 °C

Task item: Give melting point for the following compound: `Cc1ccc(N=C=O)c(C#N)c1`
Reply: 52 to 54 °C

###

assayMetric: melting point

Sample answers from the record:
- compound: "CCc1cc2c(C)cc(=O)oc2cc1O"
  result: "216 to 218 °C"
- compound: "CN1C(=O)C(C#N)=C(N)C12CCCC2"
  result: "290 to 292 °C"
- compound: "O=C(CBr)c1ccc(S(=O)(=O)N2CCCCCC2)cc1"
  result: "70 to 72 °C"
- compound: "Cc1nc(N)nc(C2CC2)n1"
  result: "114 to 116 °C"
- compound: "CC(C(=O)O)N(C)c1nccn2cnnc12 (stereo not drawn)"
  result: "153 to 155 °C"

Task item: Fill in melting point for record `CN(c1ccc(C(=O)CCl)cc1)S(C)(=O)=O`
Reply: 75 to 77 °C

Task item: For the compound `ClCCc1ncc(-c2ccccc2)o1` , give its reported melting point.
Reply: 68 to 70 °C

Task item: Give melting point for `NC(=O)C1(c2cccc(Cl)c2)CC1`
Reply: 99 to 101 °C

Task item: Tell me its melting point given `NS(=O)(=O)c1cc([N+](=O)[O-])c(Br)s1` as the entry.
Reply: 145 to 147 °C

Task item: Report melting point, nothing else, for this compound: `O=C(O)Cc1c(F)cncc1Cl`
Reply: 99 to 101 °C

Task item: Write down melting point measured for item `O=C(O)c1csc(-c2ncccn2)n1`
Reply: 217 to 219 °C

Task item: Entry `O=C(O)c1cn(Cc2ccccc2)c2ccccc12` needs its melting point filled in; supply it.
Reply: 192 to 194 °C

Task item: # return recorded melting point for input `N#Cc1ccc(N2CCOC2=O)cc1`
Reply: 149 to 151 °C

Task item: Quick one: give measured melting point for `O=C(O)CNC(=O)c1cc(F)cc(F)c1`
Reply: 154 to 156 °C

Task item: Report measured melting point; entry is `CSc1ccc(CN2CCNCC2)cc1`
Reply: 53 to 55 °C

Task item: Give a short answer stating reported melting point for `Cc1cccn2c(C=O)cnc12` .
Reply: 83 to 85 °C

Task item: Read off the recorded melting point for `Cn1cc(C(=O)O)c(C(F)(F)F)n1`
Reply: 210 to 212 °C

Task item: Look up and state reported melting point for `Clc1cc2nnc(-c3ccccc3)n2cn1`
Reply: 155 to 157 °C

Task item: Supply measured melting point of `OCc1ccc2c(c1)NCC2` in your reply.
Reply: 49 to 51 °C

Task item: Give the reported value of melting point for this record: `COC1(OC)CC(CO)(CO)C1`
Reply: 48 to 50 °C

Task item: Using known records, supply melting point for `CC(=O)c1nc2ccccc2n1C`
Reply: 67 to 69 °C

Where do the numbers come from? From a melting point compilation (Tetko et al.).
